This collection of values is drawn from ChEMBL document CHEMBL4406794.

# procedure.summary: Tmax in Sprague-Dawley rat at 1 mg/kg, iv by LC-tandem mass spectrometry analysis
# Assay type: ADME, organism-based
# study.conditions: in vivo
metric.name: Tmax (min)
Just the number please, in min, no unit attached.

Q: May I ask what Tmax has been recorded for `O=C(Nc1cccc(Br)c1)Nc1cc(Oc2ccc3nc(NC(=O)C4CC4)sc3c2)ccc1F` ?
Ans: 4.98

---

# procedure.summary: AUC (0 to infinity) in Sprague-Dawley rat at 1 mg/kg, iv by LC-tandem mass spectrometry analysis
# Assay type: ADME, organism-based
# Design: dose 1 mg/kg, time infinity, route intravenous
# study.conditions: in vivo
metric.name: AUC(0-inf) (ng·h/mL)
Numbers only; they are read as ng·h/mL.

Q: Find the recorded AUC(0-inf) belonging to `O=C(Nc1cccc(Br)c1)Nc1cc(Oc2ccc3nc(NC(=O)C4CC4)sc3c2)ccc1F` and report it.
Ans: 6500
